Observed pIC50 for BChE (Homo sapiens, UniProt P06276), reported per entry below.
One number for each entry, as −log10 of the molar value.

Look at each compound and report its pIC50.
1. CCCCCCCC/C=C\CCCCCCCC(N)=O [A1, 9-cis-octadecenamide]
2. CCCCC/C=C/C=C/C(=O)NCCc1ccccc1 [A3]

Solution:
1. 5.03
2. 5.06

###

Notes on pIC50 obtained with UniProt:P22303.
Sequence (P22303 32-614): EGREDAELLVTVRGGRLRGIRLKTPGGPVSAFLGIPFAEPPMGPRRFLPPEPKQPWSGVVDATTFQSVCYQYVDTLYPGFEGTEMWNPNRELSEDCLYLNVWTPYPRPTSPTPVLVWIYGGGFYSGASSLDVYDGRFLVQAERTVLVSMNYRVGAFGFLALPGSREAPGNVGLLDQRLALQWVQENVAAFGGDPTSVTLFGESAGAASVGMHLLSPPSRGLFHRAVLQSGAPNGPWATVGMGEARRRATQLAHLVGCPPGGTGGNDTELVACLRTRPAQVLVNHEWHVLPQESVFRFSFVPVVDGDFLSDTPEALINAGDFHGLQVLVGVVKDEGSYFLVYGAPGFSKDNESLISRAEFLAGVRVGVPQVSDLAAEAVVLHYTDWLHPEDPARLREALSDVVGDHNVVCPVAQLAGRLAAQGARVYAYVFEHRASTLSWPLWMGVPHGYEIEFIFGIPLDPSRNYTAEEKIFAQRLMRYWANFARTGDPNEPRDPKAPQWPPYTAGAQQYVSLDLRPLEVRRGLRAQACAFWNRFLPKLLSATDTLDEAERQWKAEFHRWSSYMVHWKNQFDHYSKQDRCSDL
Answers are plain numbers, as −log10 of the molar value.

compound=CCCCC/C=C/C=C/C(=O)NCCc1ccccc1 test_target=UniProt:P22303 recorded_number=5.11

Problem: Output measured pIC50 for this item: CCCCCCCC/C=C\CCCCCCCC(N)=O [A1, 9-cis-octadecenamide]
Solution: 5.08

###

# Test system: iNOS
# test: iNOS inhibitory activity in LPS-induced RAW264.7 macrophages (nitrite, Griess reagent)
# Assay type: cell-based
# reported_conditions: Mus musculus; LPS-induced RAW264.7 macrophages; isolated compounds and Parthenolide; read-out: iNOS IC50
Please go through the items and note down their IC50.
Numbers only, in µM.

compound=CCCCC/C=C/C=C/C(=O)NCCc1ccccc1 unit_of_measure=µM recorded_number=9.15

Now for the compound whose IC50 we want.
Problem: Provide IC50 value for the following compound: C=C1C(=O)O[C@H]2[C@H]1CC/C(C)=C/CC[C@@]1(C)O[C@@H]21 [Parthenolide, reference compound]
Solution: 4.1

Sourced from paper PMC10655324
